assay: gastric ulceration test (ability to induce gastric ulceration, 4 days oral dosing); settings: in vivo, therapeutic index in respect to gastric ulceration, * = significantly different from parent compound p ≤0.05, read-out: AII (antiinflammatory index, UD50/ED50)
ENDPOINT LABEL: selectivity ratio
Give bare numbers.

COMPOUND: Cc1cc(CC(=O)NC(C)C(=O)O)n(C)c1C(=O)c1ccc(Cl)cc1 (stereo not shown) [VIII (1)]
ENDPOINT VALUE: 37.6
//
COMPOUND: Cc1cc(CC(=O)N[C@@H](CCC(N)=O)C(=O)O)n(C)c1C(=O)c1ccc(Cl)cc1 [XI]
ENDPOINT VALUE: 46.5
//
COMPOUND: Cc1cc(CC(=O)O)n(C)c1C(=O)c1ccc(Cl)cc1 [zomepirac, reference compound]
ENDPOINT VALUE: 27.2

Dear reader, for each entry below, please note its selectivity ratio.
1. Cc1cc(CC(=O)NCC(=O)O)n(C)c1C(=O)c1ccc(Cl)cc1 [Example VII]
2. Cc1cc(CC(=O)NC(CCCCN)C(=O)O)n(C)c1C(=O)c1ccc(Cl)cc1 (stereo not shown) [X]
3. CSCCC(NC(=O)Cc1cc(C)c(C(=O)c2ccc(Cl)cc2)n1C)C(=O)O (stereo not shown) [VIII (2)]
4. Cc1cc(CC(=O)NC(CC(=O)O)C(=O)O)n(C)c1C(=O)c1ccc(Cl)cc1 (stereo not shown) [VIII (4)]

1. 34.4
2. 54.8
3. 46.9
4. 93.1
